Test system: peripheral blood mononuclear cells (PBMC), T cells
Assay: ELISpot assay, gamma-interferon release (SFC) after stimulation with a-synuclein epitope pools
Type: cell-based, human
Details: peptides of pool 'Poshpho', 8 donors tested
For each entry below, report its IFNg Total SFC value.
Answers are plain numbers, in SFC.

Solved entries:
substance | assaySystem | IFNg Total SFC, SFC
3521.0023 (YEMPSEEGY; listed as Homo sapiens) | peripheral blood mononuclear cells (PBMC), T cells | 333
3521.004 (DNEAYEMPSE; listed as Homo sapiens) | peripheral blood mononuclear cells (PBMC), T cells | 0
3521.0038 (EMPSEEGYQD; listed as Homo sapiens) | peripheral blood mononuclear cells (PBMC), T cells | 40

Consider the following items and state reported IFNg Total SFC for each.
1. 3521.0058 (SEEGYQDYEP; listed as Homo sapiens)
2. 3521.0027 (AYEMPSEEGY; listed as Homo sapiens)

Reply text:
26.7
53

====

System: peripheral blood mononuclear cells (PBMC), T cells
Test: ELISpot assay, gamma-interferon release (SFC) after stimulation with a-synuclein epitope pools
Format: cell-based, human
Settings: Patients Summary; PD patients; single peptide
Answer each item with its documented IFNg Total SFC.
One number for each entry, in SFC.

# annotated cases, reported IFNg Total SFC shown
substance | IFNg Total SFC (SFC)
3521.008 (VAAAEKTKQGVAEAA; listed as Homo sapiens) | 150
3521.0036 (AGSIAAATGF; listed as Homo sapiens) | 0
3521.0086 (ATVAEKTKEQVTNVG; listed as Homo sapiens) | 0
3521.0077 (KTKEGVLYVGSKTKK; listed as Homo sapiens) | 3505
3521.0041 (EGILEDMPVD; listed as Homo sapiens) | 0

Batch of 5 substances: report IFNg Total SFC for each.
1. 3521.0033 (VLYVGSKTKK; listed as Homo sapiens)
2. 3521.0007 (AAATGFVKK; listed as Homo sapiens)
3. 3521.0011 (QVTNVGGAV; listed as Homo sapiens)
4. 3521.0019 (APGKTKEGV; listed as Homo sapiens)
5. 3521.0061 (AATGFVKKDQ; listed as Homo sapiens)

Reply text:
1626
0
0
0
0

====

Tested on: peripheral blood mononuclear cells (PBMC), T cells
Assay: ELISpot assay, gamma-interferon release (SFC) after stimulation with a-synuclein epitope pools
Format: cell-based, human
Conditions: Patients Summary; PD patients; of donors tested (peptide)
Field: IFNg Peptide + (donors positive to the peptide). Provide a value for each of the substances that follow.
Answers are plain numbers.

# example entries with known answers
substance | assaySystem | numericReadout
3521.0036 (AGSIAAATGF; listed as Homo sapiens) | peripheral blood mononuclear cells (PBMC), T cells | 0
3521.0011 (QVTNVGGAV; listed as Homo sapiens) | peripheral blood mononuclear cells (PBMC), T cells | 0
3521.0029 (NVGGAVVTGV; listed as Homo sapiens) | peripheral blood mononuclear cells (PBMC), T cells | 0

Take each entry in turn and give its IFNg Peptide + (donors positive to the peptide).
1. 3521.0019 (APGKTKEGV; listed as Homo sapiens)
2. 3521.0072 (EGVVHGVTTVAEKTK; listed as Homo sapiens)

Reply text:
1. 0
2. 0

Hi! Can you tell me IFNg Peptide + (donors positive to the peptide) for each of these substances?
1. 3521.0085 (EGVVHGVATVAEKTK; listed as Homo sapiens)
2. 3521.005 (APGKTKEGVL; listed as Homo sapiens)
3. 3521.0084 (YVGSKTKEGVVHGVA; listed as Homo sapiens)
4. 3521.0041 (EGILEDMPVD; listed as Homo sapiens)
5. 3521.0034 (GVLYVGSKTK; listed as Homo sapiens)
6. 3521.0042 (AGKTKEGVLY; listed as Homo sapiens)

Reply text:
1. 0
2. 1
3. 0
4. 0
5. 5
6. 1
